- ASSAYED TARGET: MMP 9 (Homo sapiens)
- Construct: from tissue; host or cells: human neutrophils
- ASSAY OVERVIEW: In Vitro Gelatinase Assay
- Assay type: biochemical
- CONDITION CONTEXT: human neutrophil gelatinase B; read-out: MMP 9 IC 50
READOUT TYPE: IC50 (nM)

Please review the following examples before continuing.
COMPOUND	U	IC50
CCCC(Cc1ccc(OCCN2CCOCC2)cc1)(C(=O)NO)S(=O)(=O)c1ccc(OC)cc1 (stereo not drawn)	nM	234
COc1ccc(CCN2CCC(C(=O)NO)(S(=O)(=O)c3ccc(OC)cc3)CC2)cc1	nM	33.7
COc1ccc(S(=O)(=O)C(C)(Cc2cccc(OCCN3CCCCC3)c2)C(=O)NO)cc1 (stereo not drawn)	nM	3.2

A: COc1ccc([S+]([O-])C(C(=O)NO)C(C)C)cc1 (stereo not drawn)
B: COc1ccc(S(=O)(=O)C2(C(=O)NO)CCN(CCOc3ccccc3)CC2)cc1
C: COc1ccc(S(=O)(=O)C2(C(=O)NO)CCN(Cc3ccc(C)cc3)CC2)cc1
D: COc1ccc(S(=O)(=O)C2(C(=O)NO)CCN(CC=C(C)C)CC2)cc1
Q. Reorder the items by IC50, least to greatest. Sort and list the labels as requested.
A. C, B, D, A
(C: 16.8 nM, B: 26.8 nM, D: 38.6 nM, A: 72.9 nM)

###

- ASSAYED TARGET: MMP 9 (Homo sapiens, UniProt P14780)
- Construct: from tissue; host or cells: human neutrophils
- Sequence (P14780 94-707): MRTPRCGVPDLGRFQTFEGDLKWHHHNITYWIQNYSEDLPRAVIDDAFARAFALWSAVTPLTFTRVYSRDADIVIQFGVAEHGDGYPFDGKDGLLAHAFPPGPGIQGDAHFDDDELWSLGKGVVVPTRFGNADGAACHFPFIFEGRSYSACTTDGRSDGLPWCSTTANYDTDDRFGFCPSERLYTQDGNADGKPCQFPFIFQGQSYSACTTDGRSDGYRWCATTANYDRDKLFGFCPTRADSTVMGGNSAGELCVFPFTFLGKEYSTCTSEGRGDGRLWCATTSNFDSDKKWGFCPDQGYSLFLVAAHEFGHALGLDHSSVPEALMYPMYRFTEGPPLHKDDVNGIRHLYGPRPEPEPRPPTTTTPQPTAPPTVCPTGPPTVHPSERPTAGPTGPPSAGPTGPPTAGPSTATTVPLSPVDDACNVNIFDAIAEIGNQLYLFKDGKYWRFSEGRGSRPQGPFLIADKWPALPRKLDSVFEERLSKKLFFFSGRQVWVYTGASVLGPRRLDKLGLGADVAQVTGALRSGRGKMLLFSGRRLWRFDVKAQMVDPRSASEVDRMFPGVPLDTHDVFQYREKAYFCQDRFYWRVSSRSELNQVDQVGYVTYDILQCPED
- ASSAY OVERVIEW: In Vitro Gelatinase Assay
- Format: biochemical
- CONDITION CONTEXT: human neutrophil gelatinase B; read-out: MMP 9 IC 50
pIC50: −log10 of the molar value.
READOUT TYPE: pIC50

Please review the following examples before continuing.
MOLECULE	ASSAYED TARGET	pIC50
CCCCCC#CCC(Cc1cccnc1)(C(=O)NO)S(=O)(=O)c1ccc(OC)cc1 (centres unmarked) [Example 74]	MMP 9 (Homo sapiens, UniProt P14780)	8.04
COc1ccc(S(=O)(=O)C(CC=C(C)C)(Cc2cccnc2)C(=O)NO)cc1 (centres unmarked) [Example 63]	MMP 9 (Homo sapiens, UniProt P14780)	8.05
COc1ccc(S(=O)(=O)C(C/C=C(\C)CCC=C(C)C)(Cc2ccc(OCCN3CCOCC3)cc2)C(=O)NO)cc1 (centres unmarked) [Example 26]	MMP 9 (Homo sapiens, UniProt P14780)	8.20
COc1ccc([S+]([O-])C(C)(Cc2ccccc2)C(=O)NO)cc1 (centres unmarked) [Example 5]	MMP 9 (Homo sapiens, UniProt P14780)	8.11
COc1ccc(S(=O)(=O)C2(C(=O)NO)CCN(Cc3ccccc3)CC2)cc1 [Example 83]	MMP 9 (Homo sapiens, UniProt P14780)	7.99
CCC(Cc1ccc(OCCN2CCCCC2)cc1)(C(=O)NO)S(=O)(=O)c1ccc(OC)cc1 (centres unmarked) [Example 34]	MMP 9 (Homo sapiens, UniProt P14780)	7.46

A: CCCCCCC(Cc1ccc(OCCN2CCCCCC2)cc1)(C(=O)NO)S(=O)(=O)c1ccc(OC)cc1 (centres unmarked) [Example 36]
B: CC#CCC(CC#CC)(C(=O)NO)S(=O)(=O)c1ccc(F)cc1 [Example 78]
Q. I need your help: which of the pair A , B has higher pIC50? Output the label that corresponds to your choice.
A. A
(A: 7.08, B: 6.25)

a: CCC(Cc1ccc(OCCN2CCOCC2)cc1)(C(=O)NO)S(=O)(=O)c1ccc(OC)cc1 (centres unmarked) [Example 33]
b: COc1ccc(S(=O)(=O)C(C)(CC2CCCCC2)C(=O)NO)cc1 (centres unmarked) [Example 16]
Q. Could you check which of a and b has a smaller value for pIC50? Output the label that corresponds to your choice.
A. a
